Biological target: Dihydroorotate dehydrogenase (quinone), mitochondrial (Homo sapiens) (UniProt Q02127)
Sequence (Q02127 whole entry): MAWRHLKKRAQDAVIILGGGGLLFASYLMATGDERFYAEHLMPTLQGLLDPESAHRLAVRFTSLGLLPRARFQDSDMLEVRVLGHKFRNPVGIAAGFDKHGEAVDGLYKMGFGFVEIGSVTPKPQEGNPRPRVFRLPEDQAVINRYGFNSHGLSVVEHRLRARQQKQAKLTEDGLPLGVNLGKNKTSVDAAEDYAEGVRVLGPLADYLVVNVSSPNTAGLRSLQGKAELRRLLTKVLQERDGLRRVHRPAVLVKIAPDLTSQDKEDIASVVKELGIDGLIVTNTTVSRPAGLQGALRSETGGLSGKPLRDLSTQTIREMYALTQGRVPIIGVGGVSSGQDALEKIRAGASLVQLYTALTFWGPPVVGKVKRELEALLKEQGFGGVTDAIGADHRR
Assay: Inhibition of human DHODH at 50 uM
value_type: inhibition (%)

> print(dat)
                               query.smiles  unit  numeric.readout
1  CC1(C)OC(=O)C(=CNc2ccc(Cl)c(C(=O)O)c2)C(=O)O1     %               21

a. CCOC(=O)c1cc(NC=C2C(=O)OC(C)(C)OC2=O)ccc1Cl
b. CCOC(=O)/C(C#N)=C\Nc1ccc(C(=O)O)c(Cl)c1
[in] Field: lower recorded inhibition (choose a or b ) Please identify the chosen entry by its label.
[out] a

====

Molecular target: UniProt:Q54A96
Sequence (Q54A96 as listed by the source): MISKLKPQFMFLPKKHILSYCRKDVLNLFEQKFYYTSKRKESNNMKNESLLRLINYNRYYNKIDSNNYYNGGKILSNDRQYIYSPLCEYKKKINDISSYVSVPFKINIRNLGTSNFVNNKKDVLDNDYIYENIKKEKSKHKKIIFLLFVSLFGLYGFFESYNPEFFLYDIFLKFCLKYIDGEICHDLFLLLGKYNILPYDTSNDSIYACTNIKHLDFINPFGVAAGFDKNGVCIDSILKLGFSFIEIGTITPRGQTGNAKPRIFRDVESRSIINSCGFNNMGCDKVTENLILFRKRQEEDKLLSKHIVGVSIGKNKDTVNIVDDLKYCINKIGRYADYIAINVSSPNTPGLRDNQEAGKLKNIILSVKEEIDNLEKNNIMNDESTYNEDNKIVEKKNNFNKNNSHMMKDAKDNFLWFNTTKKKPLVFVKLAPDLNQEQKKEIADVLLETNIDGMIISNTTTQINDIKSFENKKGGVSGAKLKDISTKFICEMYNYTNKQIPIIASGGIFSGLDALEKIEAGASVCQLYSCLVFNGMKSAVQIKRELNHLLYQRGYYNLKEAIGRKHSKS
Assay: Inhibition of Plasmodium falciparum DHODH at 50 uM
value_type: inhibition (%)

Before answering, review these 5 worked examples.
> print(dat)
                               query.smiles  numeric.readout
1  CC1(C)OC(=O)C(=CNc2ccc(C(=O)O)c(Cl)c2)C(=O)O1               41
2  CCOC(=O)c1cc(NC=C2C(=O)OC(C)(C)OC2=O)ccc1Cl                0
3     CCOC(=O)/C(C#N)=C\Nc1ccc(C(=O)OCC)cc1                2
4  CCOC(=O)C(=CNc1ccc(C(=O)OCC)c(Cl)c1)C(=O)OCC               60
5       CCOC(=O)/C(C#N)=C\Nc1ccc(C(=O)O)cc1                0

P. CCOC(=O)/C(C#N)=C\Nc1ccc(Cl)c(C(=O)O)c1
Q. CC1(C)OC(=O)C(=CNc2cccc(C(=O)O)c2)C(=O)O1
[in] Of P and Q , which one carries the higher reported inhibition? Please identify the chosen entry by its label.
[out] P
(P: 44%, Q: 25%)

I. CCOC(=O)/C(C#N)=C\Nc1ccc(C(=O)O)c(Cl)c1
II. CCOC(=O)c1cccc(NC=C2C(=O)OC(C)(C)OC2=O)c1
III. CCOC(=O)C(=CNc1ccc(C(=O)OCC)cc1)C(=O)OCC
IV. CC1(C)OC(=O)C(=CNc2ccc(Cl)c(C(=O)O)c2)C(=O)O1
V. CCOC(=O)/C(C#N)=C\Nc1cccc(C(=O)OCC)c1
[in] Hello, I need these entries ordered by inhibition, highest reading first. Thanks! Answer by listing the labels in the order asked for.
[out] IV, I, V, III, II
(IV: 50%, I: 33%, V: 23%, III: 15%, II: 0%)

====

Target: Dihydroorotate dehydrogenase (quinone), mitochondrial (Homo sapiens)
Test: Inhibition of human DHODH at 50 uM
value_type: inhibition (%)

> print(dat)
                               query.smiles                       experimental.system  value.type  unit  numeric.readout
1       CCOC(=O)/C(C#N)=C\Nc1cccc(C(=O)O)c1  Dihydroorotate dehydrogenase (quinone), mitochondrial (Homo sapiens)  inhibition     %               23
2       CCOC(=O)/C(C#N)=C\Nc1ccc(C(=O)O)cc1  Dihydroorotate dehydrogenase (quinone), mitochondrial (Homo sapiens)  inhibition     %               29
3  CCOC(=O)/C(C#N)=C\Nc1ccc(C(=O)OCC)c(Cl)c1  Dihydroorotate dehydrogenase (quinone), mitochondrial (Homo sapiens)  inhibition     %               12

1. CC1(C)OC(=O)C(=CNc2ccc(C(=O)O)cc2)C(=O)O1
2. CCOC(=O)c1ccc(NC=C2C(=O)OC(C)(C)OC2=O)cc1
[in] Of 1 and 2 , which one carries the higher reported inhibition? Please identify the chosen entry by its label.
[out] 1

I. CC1(C)OC(=O)C(=CNc2cccc(C(=O)O)c2)C(=O)O1
II. CCOC(=O)/C(C#N)=C\Nc1cccc(C(=O)OCC)c1
[in] Of I and II , which one carries the higher reported inhibition? Please identify the chosen entry by its label.
[out] I

1. CCOC(=O)C(=CNc1ccc(C(=O)O)cc1)C(=O)OCC
2. CCOC(=O)c1cccc(NC=C2C(=O)OC(C)(C)OC2=O)c1
[in] Of 1 and 2 , which one carries the higher reported inhibition? Please identify the chosen entry by its label.
[out] 1
(1: 37%, 2: 1%)

I. CCOC(=O)C(=CNc1ccc(C(=O)OCC)c(Cl)c1)C(=O)OCC
II. CCOC(=O)c1ccc(NC=C2C(=O)OC(C)(C)OC2=O)cc1Cl
III. CCOC(=O)/C(C#N)=C\Nc1ccc(Cl)c(C(=O)O)c1
[in] Hello, I need these entries ordered by inhibition, highest reading first. Thanks! Answer by listing the labels in the order asked for.
[out] III, I, II
(III: 45%, I: 8%, II: 0%)

P. CCOC(=O)C(=CNc1ccc(Cl)c(C(=O)OCC)c1)C(=O)OCC
Q. CCOC(=O)C(=CNc1ccc(C(=O)OCC)cc1)C(=O)OCC
R. CCOC(=O)C(=CNc1cccc(C(=O)O)c1)C(=O)OCC
[in] Hello, I need these entries ordered by inhibition, highest reading first. Thanks! Answer by listing the labels in the order asked for.
[out] R, P, Q

1. CC1(C)OC(=O)C(=CNc2ccc(C(=O)O)c(Cl)c2)C(=O)O1
2. CCOC(=O)C(=CNc1cccc(C(=O)OCC)c1)C(=O)OCC
[in] Of 1 and 2 , which one carries the higher reported inhibition? Please identify the chosen entry by its label.
[out] 1
(1: 21%, 2: 5%)

A. CCOC(=O)/C(C#N)=C\Nc1ccc(Cl)c(C(=O)OCC)c1
B. CCOC(=O)C(=CNc1ccc(Cl)c(C(=O)O)c1)C(=O)OCC
[in] Of A and B , which one carries the higher reported inhibition? Please identify the chosen entry by its label.
[out] B
